Consider the following compounds; for each one, report its TGI.
tested on: SW-620 colon; assay: NCI tumour cell line growth inhibition, 48 h

Reference set (8 entries):
Compound	TGI
O=[N+]([O-])c1ccc(C2CC(c3ccccc3Cl)=Nc3ccccc3S2=O)cc1 (stereo not drawn)	3.91 µM
Cc1cc(Nc2nc(-c3cccnc3)nc3ccccc23)n[nH]1	> 100 µM
COc1cccc2c1-c1c(c3ccc([N+](=O)[O-])cc3c(=O)n1CCCN)C2=O	3.2 µM
S=c1[nH]nc(Cc2ccccc2)c(=S)[nH]1	> 100 µM
O=C1c2ccccc2C(=O)c2sc(Nc3ccccc3C(F)(F)F)nc21	24.4 µM
Cc1c(CCO)c(=O)n2c([nH]c3ccccc32)c1C#N	> 100 µM
O=C(/C=C/c1ccco1)c1ccc(NCc2nc3ccccc3[nH]2)cc1	34.3 µM
S=c1nc(COc2ccc(Cl)cc2Cl)[nH][nH]1	> 100 µM

Give TGI for each listed item.
1. CC(=O)OC(Cc1ccc2ccccc2n1)(C(F)(F)F)C(F)(F)F
2. COc1cc(-c2cc(-c3ccc(Nc4ccnc5cc(Cl)ccc45)cc3)nc(N3CCOCC3)n2)cc(OC)c1OC
3. CCOC(=O)c1nc2ccccc2nc1Oc1ccc(C(=O)OC)cc1

1. 12 µM
2. 3.45 µM
3. > 100 µM

Give TGI for each listed item.
1. C(/Cc1ccc2c(c1)OCO2)=N\NC1=NCCN1
2. CC1=NN(C(=O)CC(=O)Nc2ccccc2Cl)C(=O)C1N=Nc1ccc(S(=O)(=O)c2ccc(N=NC3C(=O)N(C(=O)CC(=O)Nc4ccccc4Cl)N=C3C)cc2)cc1 (stereo not drawn)
3. CC(=O)NC1C(OCc2ccccc2)OC(CO)C(O)C1OC(C)C(=O)N[C@@H](C)C(=O)N[C@H](CCC(=O)OCCNc1c2ccccc2nc2cccc([N+](=O)[O-])c12)C(N)=O (stereo partly drawn)
4. COc1ccc2c(c1)CC[C@@H]1[C@@H]2CC[C@]2(C)[C@@H](NC(=O)/C=C/c3ccc(O)c(O)c3)CC[C@@H]12

1: > 100 µM; 2: > 100 µM; 3: 0.00283 µM; 4: 25 µM

Give TGI for each listed item.
1. COc1cccc(-c2nn(-c3ccccc3)cc2-c2ccnc(NCCNC(=O)Nc3cccc(C(F)(F)F)c3)c2)c1
2. CCN1C(=O)CCCc2c1ccc(Nc1ncc(Cl)c(NC3[C@@H](C(N)=O)[C@@H]4C=C[C@H]3C4)n1)c2OC (stereo partly drawn)
3. CC(=O)c1c(CN(C)c2ccccc2)n([O-])c2ccccc2[n+]1=O
4. Cc1ccc(-n2cc(-c3ccc(Cl)cc3)c3c(N/N=C4\SCC(=O)N4C)ncnc32)cc1
5. COC(=O)CCC1CCc2c(OC)ccc(OC)c2C1=O (stereo not drawn)
6. COC(=O)/C(=N/Nc1cccc(Cl)c1)C(C(=O)C(=O)Nc1cccc(Cl)c1C)c1nc2ccccc2nc1C (stereo not drawn)
7. Cc1cn(CCCCCCC2=NCCCN2)c(=O)[nH]c1=O

3.81 µM
3.48 µM
> 100 µM
> 100 µM
> 100 µM
> 100 µM
> 100 µM
